Hey, just so you know, these numbers are from PubChem BioAssay (NCI).

# System: HL-60(TB) leukemia
# PROTOCOL SUMMARY: NCI-60 one-dose screen, 48 h
# SETTINGS: 10 µM unless noted
This is part of a sample that, as a whole, favours compounds with a hit. Of some 83,000 tested, about 20% had one in any assay. The source made the active and inactive calls. How the source made its calls: active means growth percent below 10; inactive means the rest.
Labels: Y (active), N (inactive)

- MOLECULE: "CCN(CC)CC(=O)N(CC)c1ccc(C)c(Cl)c1"
  ANSWER LABEL: "N"
- MOLECULE: "O=C1CC(=O)N(c2ccccc2)O1"
  ANSWER LABEL: "N"
- MOLECULE: "CCOC(=O)/C=C/C(=O)[C@H](CC(C)C)NC(=O)[C@H](Cc1ccccc1)NC(=O)OCc1ccccc1"
  ANSWER LABEL: "N"
- MOLECULE: "O=C1CSC(=S)N1CCc1ccc(O)cc1"
  ANSWER LABEL: "N"
- MOLECULE: "Cc1ccc(/C=C(\\C#N)n2nnc3cc(F)c(F)cc32)cc1"
  ANSWER LABEL: "Y"
- MOLECULE: "COc1c(C)c2c(c(O)c1C/C=C(\\C)CCC(=O)OCCN1CCOCC1)C(=O)OC2"
  ANSWER LABEL: "N"
- MOLECULE: "CC1=CCC[C@@H]2C1(C)CC[C@H](C)[C@@]2(C)CC1=CC(=O)C(SC(C)(C)C)=CC1=O (stereo partly specified)"
  ANSWER LABEL: "N"
- MOLECULE: "c1cnc2n[nH]c(Nc3ncnc4c3sc3ncccc34)c2c1"
  ANSWER LABEL: "N"
- MOLECULE: "CNC(=O)c1c(C)oc2cc(Oc3ncnc4cc(OC)c(OC)cc34)ccc12"
  ANSWER LABEL: "N"
- MOLECULE: "Oc1ccccc1O"
  ANSWER LABEL: "N"
- MOLECULE: "CCCCCCCCCCCCCCCCn1cc[n+](C)c1"
  ANSWER LABEL: "N"
